# TARGET OR SYSTEM: Peroxisome proliferator-activated receptor alpha (Homo sapiens)
# EXPERIMENT NOTES: Agonist activity at human PPARalpha ligand binding domain expressed in human 293T cells co-transfected with Gal4-DBD by luciferase transactivation assay relative to KRP297
# Assay type: cell-based
RECORDED ENDPOINT: Efficacy (%)
# number only, unit % dropped from output

Take a look at these entries with their results.
INSERT INTO results (compound_structure_string, recorded_endpoint, recorded_result) VALUES
  ('Cc1cc(OCc2nc(-c3ccc(C(=O)N(C)C(C)C)cc3)c(-c3ccc(OC(F)(F)F)cc3)o2)ccc1OCC(=O)O', 'Efficacy', 49),
  ('Cc1cc(OCc2nc(-c3ccc(OC(C)C)nc3)c(-c3ccc(OC(F)(F)F)cc3)o2)ccc1OCC(=O)O', 'Efficacy', 20),
  ('Cc1cc(OCc2nc(-c3ccc(OC4CCCC4)cc3)c(-c3ccc(OC(F)(F)F)cc3)o2)ccc1OCC(=O)O', 'Efficacy', 56),
  ('Cc1cc(OCc2nc(-c3cnc(N4CCOCC4)nc3)c(-c3ccc(OC(F)(F)F)cc3)o2)ccc1OCC(=O)O', 'Efficacy', 69),
  ('Cc1cc(OCc2nc(-c3ccc(-c4ccccc4)cc3)cs2)ccc1OCC(=O)O', 'Efficacy', 42);

Challenge: Which Efficacy is listed for `Cc1cc(OCc2nc(-c3ccc(C(=O)N4CCCCC4)cc3)c(-c3ccc(OC(F)(F)F)cc3)s2)ccc1OCC(=O)O` ?
Response given: 55

Challenge: Which Efficacy is listed for `COc1ccc(-c2nc(SCCCOc3ccc(OCC(=O)O)c(C)c3)sc2-c2ccc(OC)cc2)cc1` ?
Response given: 62

Challenge: Which Efficacy is listed for `COc1ccc(-c2nc(SCCCCOc3ccc(OCC(=O)O)c(C)c3)sc2-c2ccc(OC)cc2)cc1` ?
Response given: 89

Challenge: Which Efficacy is listed for `Cc1cc(OCc2nc(-c3cnc(N4CCOCC4)nc3)c(-c3ccc(OC(F)(F)F)cc3)s2)ccc1OCC(=O)O` ?
Response given: 38
